test.system: UniProt Q695T7
Sequence (Q695T7 whole entry): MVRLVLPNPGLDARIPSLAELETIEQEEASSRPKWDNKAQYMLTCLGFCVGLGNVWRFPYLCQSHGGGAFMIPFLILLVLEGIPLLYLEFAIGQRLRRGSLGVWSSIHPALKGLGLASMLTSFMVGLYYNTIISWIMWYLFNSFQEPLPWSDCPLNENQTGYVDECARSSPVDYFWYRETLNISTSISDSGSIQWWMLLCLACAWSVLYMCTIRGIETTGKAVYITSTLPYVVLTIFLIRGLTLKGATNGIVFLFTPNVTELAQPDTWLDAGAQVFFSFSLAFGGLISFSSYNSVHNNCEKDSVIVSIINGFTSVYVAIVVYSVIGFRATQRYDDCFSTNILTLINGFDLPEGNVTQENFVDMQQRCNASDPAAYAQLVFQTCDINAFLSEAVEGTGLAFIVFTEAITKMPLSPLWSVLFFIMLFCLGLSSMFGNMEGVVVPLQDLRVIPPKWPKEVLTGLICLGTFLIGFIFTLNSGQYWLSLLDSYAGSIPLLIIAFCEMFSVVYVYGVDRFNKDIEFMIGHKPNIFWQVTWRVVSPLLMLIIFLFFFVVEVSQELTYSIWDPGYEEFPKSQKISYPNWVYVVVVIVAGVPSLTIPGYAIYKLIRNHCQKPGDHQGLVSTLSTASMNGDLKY
method.notes: Inhibition of human SLC6A19 expressed in MDCK cells co-expressing human TMEM27 using 13C6/15N-L-Isoleucine as substrate preincubated for 20 mins followed by substrate addition and measured after 20 mins by stable isotope uptake assay
Reported pIC50 values for the following compounds.
pIC50 is a log-scale quantity: -log10 of the concentration expressed in molar.

pIC50 lookup needed for CNC(=O)c1cc2c(-c3ccc(C(=O)NCc4cc(C(F)(F)F)ccc4F)cc3F)cccc2[nH]1 , thanks. 8.40

----------
test.system: UniProt Q695T7
method.notes: Inhibition of human SLC6A19 expressed in MDCK cells co-expressing human TMEM27 using 13C6/15N-L-Isoleucine as substrate preincubated for 20 mins followed by substrate addition and measured after 20 mins by stable isotope uptake assay
property: pIC50
Units for pIC50: none; it is -log10 of a concentration expressed in mol/L.

smiles.repr	pIC50
CNC(=O)c1cc2c(-c3ccc(C(=O)NCc4cccc(C(F)(F)F)c4)cc3)cc(C)c(F)c2[nH]1	8.30

// lookup pIC50 | system=UniProt Q695T7 | key= CNC(=O)c1cc2c(-c3ccc(C(=O)NCc4cccc(C(F)(F)F)c4)cc3)cc(C(C)C)cc2[nH]1 8.30

Kindly state the measured pIC50 obtained for CNC(=O)c1cc2c(-c3ccc(C(=O)NCc4cccc(C(F)(F)F)c4)cc3)c(OC)ccc2[nH]1 with UniProt Q695T7. 8.30

For the record CNC(=O)c1cc2c(-c3ccc(C(=O)NCc4cccc(C(F)(F)F)c4)cc3)ccc(F)c2[nH]1 , what value of pIC50 is listed for UniProt Q695T7? 8.40

Short answer please: pIC50, UniProt Q695T7, entry CNC(=O)c1cc2c(-c3ccc(C(=O)NCc4cccc(C(F)(F)F)c4)cc3Cl)cccc2[nH]1 8.52
